Values were extracted from patent US20260317319A1.

# system: 5-HT2A receptor (Homo sapiens, UniProt P28223)
# Sequence (P28223 whole entry): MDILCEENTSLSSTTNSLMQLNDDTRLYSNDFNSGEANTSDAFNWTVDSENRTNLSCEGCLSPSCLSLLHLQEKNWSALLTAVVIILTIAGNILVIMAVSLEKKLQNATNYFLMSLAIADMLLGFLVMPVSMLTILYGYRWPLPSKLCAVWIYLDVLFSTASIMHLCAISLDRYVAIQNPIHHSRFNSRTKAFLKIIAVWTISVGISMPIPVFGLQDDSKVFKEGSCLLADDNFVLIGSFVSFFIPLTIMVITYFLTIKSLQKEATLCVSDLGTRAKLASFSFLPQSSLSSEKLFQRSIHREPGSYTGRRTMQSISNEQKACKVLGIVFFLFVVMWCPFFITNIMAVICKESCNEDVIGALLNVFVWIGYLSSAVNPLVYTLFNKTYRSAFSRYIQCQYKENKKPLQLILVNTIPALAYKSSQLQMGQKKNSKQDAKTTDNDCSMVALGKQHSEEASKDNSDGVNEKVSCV
# experiment-description: cell-based
# Type: cell-based
# measurement-parameters: beta-arrestin recruitment
measurement-label: 5-HT2A arrestin agonist class

smiles-notation | 5-HT2A arrestin agonist class
CCC[C@@H](C)NC(=O)[C@@H]1C=C2c3cccc4[nH]cc(c34)C[C@H]2N(CCC)C1 | full agonists
C=CCN1C[C@H](C(=O)N[C@H](C)CC)C=C2c3cccc4[nH]cc(c34)C[C@H]21 | full agonists
CC[C@@H](C)NC(=O)[C@@H]1C=C2c3cccc4[nH]cc(c34)C[C@H]2N(CC)C1 | full agonists
C[C@H]1C[C@H](C)N1C(=O)[C@@H]1C=C2c3cccc4[nH]cc(c34)C[C@H]2N(C)C1 | partial agonists
CCC(CC)NC(=O)[C@@H]1C=C2c3cccc4[nH]cc(c34)C[C@H]2N(C)C1 | partial agonists
CCN(CC)C(=O)[C@@H]1C=C2c3cccc4[nH]cc(c34)C[C@H]2N(CCCF)C1 | full agonists

Hi team, please reply with 5-HT2A arrestin agonist class for each item in this list.
1. CCCN1C[C@H](C(=O)N2[C@@H](C)C[C@@H]2C)C=C2c3cccc4[nH]cc(c34)C[C@H]21
2. CC[C@@H](C)NC(=O)[C@@H]1C=C2c3cccc4[nH]cc(c34)C[C@H]2N(C)C1
3. CCC[C@@H](C)NC(=O)[C@@H]1C=C2c3cccc4[nH]cc(c34)C[C@H]2N(C)C1
4. CCCN1C[C@H](C(=O)N(CC)CC)C=C2c3cccc4[nH]cc(c34)C[C@H]21
5. CCCN1C[C@H](C(=O)NC(CC)CC)C=C2c3cccc4[nH]cc(c34)C[C@H]21
6. CCCN1C[C@H](C(=O)N[C@H](C)CC)C=C2c3cccc4[nH]cc(c34)C[C@H]21

["full agonists", "partial agonists", "partial agonists", "full agonists", "full agonists", "full agonists"]
